- MEASUREMENT_TARGET: human KV 1.5 (IKur) (Homo sapiens)
- Construct: expressed in transfected cells
- Sequence (P22460 whole entry): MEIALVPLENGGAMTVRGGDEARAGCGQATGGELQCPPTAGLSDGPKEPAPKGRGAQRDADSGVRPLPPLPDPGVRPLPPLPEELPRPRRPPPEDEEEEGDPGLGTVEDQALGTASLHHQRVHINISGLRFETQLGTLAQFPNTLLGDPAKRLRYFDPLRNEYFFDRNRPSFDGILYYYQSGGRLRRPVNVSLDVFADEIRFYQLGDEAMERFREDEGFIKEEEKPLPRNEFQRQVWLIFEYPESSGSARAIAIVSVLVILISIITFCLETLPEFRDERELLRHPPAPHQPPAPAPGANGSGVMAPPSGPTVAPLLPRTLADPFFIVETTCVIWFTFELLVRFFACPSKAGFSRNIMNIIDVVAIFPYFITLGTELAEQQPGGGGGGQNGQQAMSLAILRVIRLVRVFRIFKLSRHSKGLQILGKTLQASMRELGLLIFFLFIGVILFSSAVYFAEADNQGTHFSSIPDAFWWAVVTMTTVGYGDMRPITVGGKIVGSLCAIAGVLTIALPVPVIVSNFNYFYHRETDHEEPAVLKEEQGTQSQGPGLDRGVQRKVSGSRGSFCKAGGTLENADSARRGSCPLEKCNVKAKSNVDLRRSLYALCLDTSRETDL
- EXPERIMENT: block of IKur current in patch clamped L-929 cells expressing human Kv1.5
- Assay type: cell-based
- CONDITION_SET: L929, 0.3 μM; patch clamped mammalian L-929 cells stably expressing human Kv1.5; read-out: KV1_5% Inh L929 @0.3 μM
ENDPOINT_NAME: inhibition at 0.3 µM (%)

COMPOUND: NS(=O)(=O)c1cncc(-c2nc(NCCN3CCOCC3)c3c(-c4ccccc4)ccn3n2)c1 [Example 155]
ENDPOINT_NAME: inhibition at 0.3 µM
READOUT_VALUE: 30.2
--
COMPOUND: NS(=O)(=O)c1cncc(-c2nc(NCc3cccnn3)c3c(-c4ccccc4)ccn3n2)c1 [Example 108]
ENDPOINT_NAME: inhibition at 0.3 µM
READOUT_VALUE: 72
--
COMPOUND: NC(=O)[C@@H]1C[C@H]1c1nc(NCc2ccccn2)c2c(-c3ccccc3)ccn2n1 (racemic) [Example 44]
ENDPOINT_NAME: inhibition at 0.3 µM
READOUT_VALUE: 98.8
--
COMPOUND: c1ccc(CNc2nc(-c3cncc(-c4nnn[nH]4)c3)nn3ccc(-c4ccccc4)c23)cc1 [Example 11]
ENDPOINT_NAME: inhibition at 0.3 µM
READOUT_VALUE: 93.4
--
COMPOUND: CC(=O)Nc1ccccc1CNc1nc(-c2cncc(S(N)(=O)=O)c2)nn2ccc(-c3ccccc3)c12 [Example 180]
ENDPOINT_NAME: inhibition at 0.3 µM
READOUT_VALUE: 36.9

(A) COc1ccc(-c2ccn3nc(-c4cncc(S(N)(=O)=O)c4)nc(NCc4ccccn4)c23)cc1 [Example 105]
(B) N#Cc1cncc(-c2nc(NC(c3ccccc3)C(F)(F)F)c3c(-c4ccccc4)ccn3n2)c1 (stereo not drawn) [Example 88]
Would you mind telling me which has the lower recorded inhibition at 0.3 µM between A and B ? The response must carry the label of the picked entry. B

(1) NS(=O)(=O)c1cncc(-c2nc(NCc3ccccn3)c3c(-c4ccccc4Cl)ccn3n2)c1 [Example 136]
(2) OCC(CO)c1cncc(-c2nc(NCc3ccccc3)c3c(-c4ccccc4)ccn3n2)c1 [Example 24]
// which entry reports the smaller inhibition at 0.3 µM, 1 or 2 ? Could you answer with the label of the item you picked? 2
